Molecular target: ATP-dependent translocase ABCB1 (Homo sapiens, UniProt P08183)
Sequence (P08183 whole entry): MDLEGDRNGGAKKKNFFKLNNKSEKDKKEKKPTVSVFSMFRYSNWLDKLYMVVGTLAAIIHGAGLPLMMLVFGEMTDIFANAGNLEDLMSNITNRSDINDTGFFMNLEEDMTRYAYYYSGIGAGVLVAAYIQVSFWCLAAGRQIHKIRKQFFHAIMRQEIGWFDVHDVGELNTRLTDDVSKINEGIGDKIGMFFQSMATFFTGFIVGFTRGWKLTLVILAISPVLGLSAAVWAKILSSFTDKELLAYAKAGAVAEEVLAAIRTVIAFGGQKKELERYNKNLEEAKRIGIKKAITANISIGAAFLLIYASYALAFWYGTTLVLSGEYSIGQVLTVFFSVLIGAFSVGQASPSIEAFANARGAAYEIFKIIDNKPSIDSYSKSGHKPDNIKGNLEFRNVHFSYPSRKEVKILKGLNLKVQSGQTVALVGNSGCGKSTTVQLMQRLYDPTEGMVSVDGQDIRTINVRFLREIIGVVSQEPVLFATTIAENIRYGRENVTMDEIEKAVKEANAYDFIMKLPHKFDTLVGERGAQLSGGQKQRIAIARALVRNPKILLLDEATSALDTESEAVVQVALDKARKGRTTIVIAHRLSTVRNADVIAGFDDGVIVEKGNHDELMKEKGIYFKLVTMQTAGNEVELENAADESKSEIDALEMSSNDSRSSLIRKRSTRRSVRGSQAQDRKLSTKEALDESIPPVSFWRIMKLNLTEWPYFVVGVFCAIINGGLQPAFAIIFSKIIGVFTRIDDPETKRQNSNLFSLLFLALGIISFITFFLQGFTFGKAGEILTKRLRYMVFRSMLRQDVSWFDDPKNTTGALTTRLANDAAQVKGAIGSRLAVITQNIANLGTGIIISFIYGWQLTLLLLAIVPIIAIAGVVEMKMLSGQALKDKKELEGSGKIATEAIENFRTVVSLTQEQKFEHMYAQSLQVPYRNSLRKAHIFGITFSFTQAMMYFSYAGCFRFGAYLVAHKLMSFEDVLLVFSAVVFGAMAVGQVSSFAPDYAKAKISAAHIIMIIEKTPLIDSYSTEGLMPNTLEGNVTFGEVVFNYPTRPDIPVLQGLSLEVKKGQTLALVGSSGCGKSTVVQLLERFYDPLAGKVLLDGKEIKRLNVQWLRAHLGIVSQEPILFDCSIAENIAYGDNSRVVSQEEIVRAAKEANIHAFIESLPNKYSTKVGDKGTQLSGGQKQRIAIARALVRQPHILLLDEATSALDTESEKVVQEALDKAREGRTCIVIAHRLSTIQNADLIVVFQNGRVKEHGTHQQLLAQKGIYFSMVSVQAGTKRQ
Assay: Inhibition of human recombinant P-gp ATPase activity in isolated membranes incubated in presence of verapamil by firefly luciferase based luminescence analysis
endpoint-label: IC50 (µM)

COC(=O)[C@@H](Cc1cccc([N+](=O)[O-])c1O)NC(=O)CCC(=O)OCC(=O)[C@@]1(O)CC[C@@H]2[C@@H]3CCC4=CC(=O)CC[C@]4(C)[C@@H]3CC[C@@]21C    7.9
COC(=O)C[C@@H](c1ccc(-c2cc(C(=O)O)ccc2Cl)o1)c1oc(CN2CCN(c3ccc(OC)cc3)CC2)cc(=O)c1O    4.99
COc1cc(CCNC(=O)C[C@@H](C2=C(O)[C@@]3(Oc4c(Cl)c(OC)cc(OC)c4C3=O)[C@H](C)CC2=O)c2ccc(SC)cc2)c([N+](=O)[O-])cc1OC    2.4
O=C(O)[C@H]1O[C@@H](Oc2cc3oc(-c4ccc(O)cc4)cc(=O)c3c(O)c2O)[C@H](O)[C@@H](O)[C@@H]1O [SCUTELLARIN]    19.7
CC(=O)c1c(O)c(C)c(O)c2c1OC1=CC(=O)/C(=C(/C)Nc3cc(-c4nnn(CC(=O)O)n4)ccc3O)C(=O)[C@@]12C    3.17

P. COc1cc([C@@H](CC(=O)NCCC(=O)Nc2ccccn2)C2=C(O)[C@@]3(Oc4c(Cl)c(OC)cc(OC)c4C3=O)[C@H](C)CC2=O)ccc1O
Q. COc1cc([C@@H](CC(=O)NCCCN2CCOCC2)C2=C(O)[C@@]3(Oc4c(Cl)c(OC)cc(OC)c4C3=O)[C@H](C)CC2=O)ccc1O
R. COc1ccc(-c2coc3c4c(cc(O)c3c2=O)OC(=O)C[C@H]4c2ccc(OCc3nccn3C)c(OC)c2)cc1OC
IN: Arrange by IC50, high to low. Form field (ranking): labels in requested order.
OUT: R, Q, P
(R: 4.8 µM, Q: 3.31 µM, P: 1.28 µM)
